For each record, write down the corresponding MFI.
- System Under Test: T1, human TMEM106B (human, UniProt Q9NUM4 2-274)
- T1 construct: Full-length, on transiently transfected HEK293 cells, or natively expressed on HeLa, U251 and A549 cells; also called huTMEM106B; huTMEM
- Protocol Text: FACS A549

Binder	MFI
anti-TMEM106B antibody TM-11 (antibody, V domains shown) VH: QVQLKQSGPGQVQPSQSLSITCTVSGFSLSDYGVHWVRQSPGKGLEWLGVIWNNGNTDYNAAFISRLSINKDNSKSQVFFKMTSLQADDTAIYYCVRSLRPLHFDYWGQGTTVTVSS VL: DIVMTQSPSSLTMSVGQKVTMHCKSSQSLLNSNNLQNYLAWYQQKPGQSPTLLVYFASIRESGVPDRFIGSGSGTDFTLTISSVQAEDLADYFCQQHYNTPFTFGSGTKLEIR	1340

Query: Quick one: MFI of anti-TMEM106B antibody TM-49 (antibody, V domains shown, mouse IgG from hybridoma) VH: QVQLQQPGAELVRPGSSVKLSCKASGYTFTRFWMHWVKQRPIQGLEWIGNIDPSDSQTHYNQKFKDKATLTVDKSSSTAYMQLSSLTSEDSAVYYCARLITVDYAMDYWGQGTSVTVSS VL: QIVLTQSPAIMSASPGEKVTISCSASSSVSYMYWYQQKPGSSPKPWIHRTSNLASGVPVRFSGSGSGTSYSLTISSMEAEDAATYYCQQYHSYPPTFGAGTKLELK ?
Response: 924

// provenance: patent US20230303681A1
